molecular target: T1, Human SIRPαV2 (CAA71403.1), Extracellular Domain + His-Tag (human, UniProt P78324 31-373); assay: SPR, antibody captured on Protein A/G, ECD-His analyte, 1:1 fit
T1 construct: also called huSIRPαV2; hSIRPαV2; not shown: His-Tag
T1 sequence (P78324 other isoform, or with tags, fused parts or gaps): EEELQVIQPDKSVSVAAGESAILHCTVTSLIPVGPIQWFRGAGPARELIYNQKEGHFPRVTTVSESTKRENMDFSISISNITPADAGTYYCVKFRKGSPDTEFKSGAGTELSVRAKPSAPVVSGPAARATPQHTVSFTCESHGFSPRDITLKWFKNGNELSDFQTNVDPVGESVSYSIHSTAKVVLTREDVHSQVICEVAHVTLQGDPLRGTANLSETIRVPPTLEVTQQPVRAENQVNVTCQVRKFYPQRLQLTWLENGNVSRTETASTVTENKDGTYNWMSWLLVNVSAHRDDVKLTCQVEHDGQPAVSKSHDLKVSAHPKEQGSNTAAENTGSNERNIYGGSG
property.label: log10(Kd) (log10 of the value in nM)
Kindly note that the scale is log10 and the underlying Kd is in nM.

Some solved entries appear below for comparison.
Antibody E5 (antibody, human IgG1, kappa, L234A L235A, V domains shown) VH: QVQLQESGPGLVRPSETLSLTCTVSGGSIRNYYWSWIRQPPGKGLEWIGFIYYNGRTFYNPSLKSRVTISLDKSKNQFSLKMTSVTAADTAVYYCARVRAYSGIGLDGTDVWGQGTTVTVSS VL: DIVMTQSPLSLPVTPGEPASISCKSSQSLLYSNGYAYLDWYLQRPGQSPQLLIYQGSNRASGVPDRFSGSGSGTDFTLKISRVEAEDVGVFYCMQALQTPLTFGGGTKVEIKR | -0.06
Antibody E15 (antibody, human IgG1, kappa, L234A L235A, V domains shown) VH: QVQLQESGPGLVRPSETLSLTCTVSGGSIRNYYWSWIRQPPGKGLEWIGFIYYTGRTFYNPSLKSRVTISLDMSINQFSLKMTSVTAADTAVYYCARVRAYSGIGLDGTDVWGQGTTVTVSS VL: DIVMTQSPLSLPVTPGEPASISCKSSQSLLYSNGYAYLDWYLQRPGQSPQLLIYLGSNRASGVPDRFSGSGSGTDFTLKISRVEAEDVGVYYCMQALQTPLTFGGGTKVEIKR | -0.13
Antibody E7 (antibody, human IgG1, kappa, L234A L235A, V domains shown) VH: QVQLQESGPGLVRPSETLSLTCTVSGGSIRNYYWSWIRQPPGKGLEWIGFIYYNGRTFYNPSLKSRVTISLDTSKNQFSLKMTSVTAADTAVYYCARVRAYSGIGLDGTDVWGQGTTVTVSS VL: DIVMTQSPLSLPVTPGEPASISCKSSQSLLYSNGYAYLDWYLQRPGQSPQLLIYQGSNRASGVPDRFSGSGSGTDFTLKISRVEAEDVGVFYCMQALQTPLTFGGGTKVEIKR | 0.07
Antibody A13 (antibody, human IgG1, kappa, L234A L235A, V domains shown) VH: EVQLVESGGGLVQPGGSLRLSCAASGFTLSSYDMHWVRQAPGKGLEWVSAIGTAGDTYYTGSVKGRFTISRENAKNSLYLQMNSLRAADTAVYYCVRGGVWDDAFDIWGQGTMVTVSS VL: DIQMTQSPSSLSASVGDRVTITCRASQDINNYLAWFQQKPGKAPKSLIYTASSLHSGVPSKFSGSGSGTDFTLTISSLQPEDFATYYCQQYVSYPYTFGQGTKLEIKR | 0.92
Antibody E12 (antibody, human IgG1, kappa, L234A L235A, V domains shown) VH: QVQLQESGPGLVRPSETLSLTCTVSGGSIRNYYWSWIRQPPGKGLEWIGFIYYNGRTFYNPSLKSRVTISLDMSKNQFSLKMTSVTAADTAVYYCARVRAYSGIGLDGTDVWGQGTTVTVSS VL: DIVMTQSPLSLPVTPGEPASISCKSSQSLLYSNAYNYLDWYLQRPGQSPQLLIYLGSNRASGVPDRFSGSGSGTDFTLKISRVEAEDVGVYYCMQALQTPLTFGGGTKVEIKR | 0.10

For reference, reported log10(Kd) for Antibody E18 (antibody, human IgG1, kappa, L234A L235A, V domains shown) VH: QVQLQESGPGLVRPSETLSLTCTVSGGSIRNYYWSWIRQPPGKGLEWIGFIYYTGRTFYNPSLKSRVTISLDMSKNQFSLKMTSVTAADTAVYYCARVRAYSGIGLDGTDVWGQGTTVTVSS VL: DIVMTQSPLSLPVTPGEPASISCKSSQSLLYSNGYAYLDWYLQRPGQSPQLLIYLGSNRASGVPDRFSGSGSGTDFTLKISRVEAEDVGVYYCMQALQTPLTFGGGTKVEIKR stands at -0.05

For reference, reported log10(Kd) for Antibody E6 (antibody, human IgG1, kappa, L234A L235A, V domains shown) VH: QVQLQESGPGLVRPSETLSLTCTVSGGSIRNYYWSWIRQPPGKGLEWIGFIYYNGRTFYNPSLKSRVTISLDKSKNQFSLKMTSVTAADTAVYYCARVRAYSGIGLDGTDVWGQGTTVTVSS VL: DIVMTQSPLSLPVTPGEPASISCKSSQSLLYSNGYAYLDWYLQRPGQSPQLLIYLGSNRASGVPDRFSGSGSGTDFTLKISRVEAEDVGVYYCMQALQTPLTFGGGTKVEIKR stands at -0.06

For reference, reported log10(Kd) for Antibody E13 (antibody, human IgG1, kappa, L234A L235A, V domains shown) VH: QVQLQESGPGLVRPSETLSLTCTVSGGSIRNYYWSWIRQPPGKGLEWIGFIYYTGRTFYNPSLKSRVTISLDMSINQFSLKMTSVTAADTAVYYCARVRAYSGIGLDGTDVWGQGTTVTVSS VL: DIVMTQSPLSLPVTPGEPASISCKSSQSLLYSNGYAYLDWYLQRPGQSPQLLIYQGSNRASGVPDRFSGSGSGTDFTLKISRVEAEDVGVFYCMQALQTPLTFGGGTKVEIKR stands at -0.16

For reference, reported log10(Kd) for Antibody A7 (antibody, human IgG1, kappa, L234A L235A, V domains shown) VH: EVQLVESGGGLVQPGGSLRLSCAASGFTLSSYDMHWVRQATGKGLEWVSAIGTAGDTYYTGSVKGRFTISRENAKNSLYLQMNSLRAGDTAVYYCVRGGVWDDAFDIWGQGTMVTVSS VL: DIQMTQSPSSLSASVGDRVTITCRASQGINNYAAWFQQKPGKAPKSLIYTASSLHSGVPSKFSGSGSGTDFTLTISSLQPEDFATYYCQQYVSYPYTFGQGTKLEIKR stands at 1.31
